Protocol Description: Cytotoxicity against human WI-38 cells assessed as inhibition of cell proliferation by MTT assay
Format: toxicity, cell-based
pIC50: −log10 of the molar value.
Field: pIC50. Provide a value for each of the compounds that follow.

Known results for compounds:
| Smiles Text | pIC50 |
| --- | --- |
| Cc1ccc(COC(=O)CC[C@@H](C)[C@H]2CC[C@H]3[C@@H]4[C@H](O)C[C@@H]5C[C@H](O)CC[C@]5(C)[C@H]4CC[C@]23C)cc1 | < 3.70 |
| COC(=O)c1ccc(COC(=O)CC[C@@H](C)[C@H]2CC[C@H]3[C@@H]4[C@H](O)C[C@@H]5C[C@H](O)CC[C@]5(C)[C@H]4C[C@H](O)[C@]23C)cc1 | < 3.30 |
| C[C@H](CCC(=O)OCc1cc(O)cc(O)c1)[C@H]1CC[C@H]2[C@@H]3[C@H](O)C[C@@H]4C[C@H](O)CC[C@]4(C)[C@H]3CC[C@]12C | < 3.70 |
| C[C@H](CCC(=O)OCc1cccc(O)c1)[C@H]1CC[C@H]2[C@@H]3CC[C@@H]4C[C@H](O)CC[C@]4(C)[C@H]3CC[C@]12C | < 3.70 |
| CC(=O)Nc1ccc(OC(=O)CC[C@@H](C)[C@H]2CC[C@H]3[C@@H]4[C@H](O)C[C@@H]5C[C@H](O)CC[C@]5(C)[C@H]4C[C@H](O)[C@]23C)cc1 | < 3.70 |

Please state pIC50 for every compound in the list that follows.
1. COc1cc(COC(=O)CC[C@@H](C)[C@H]2CC[C@H]3[C@@H]4[C@H](O)C[C@@H]5C[C@H](O)CC[C@]5(C)[C@H]4CC[C@]23C)cc(OC)c1
2. CC(=O)Oc1ccc(OC(=O)CC[C@@H](C)[C@H]2CC[C@H]3[C@@H]4[C@H](O)C[C@@H]5C[C@H](O)CC[C@]5(C)[C@H]4CC[C@]23C)cc1
3. C[C@H](CCC(=O)OCc1cccc(O)c1)[C@H]1CC[C@H]2[C@@H]3[C@H](O)C[C@@H]4C[C@H](O)CC[C@]4(C)[C@H]3CC[C@]12C

A.
1. < 3.70
2. < 3.70
3. < 3.70

Please state pIC50 for every compound in the list that follows.
1. CC(=O)Oc1ccc(OC(=O)CC[C@@H](C)[C@H]2CC[C@H]3[C@@H]4[C@@H](O)C[C@@H]5C[C@@H](O)CC[C@]5(C)[C@H]4CC[C@]23C)cc1
2. C[C@H](CCC(=O)OCc1ccc([N+](=O)[O-])cc1)[C@H]1CC[C@H]2[C@@H]3[C@H](O)C[C@@H]4C[C@H](O)CC[C@]4(C)[C@H]3C[C@H](O)[C@]12C

A.
["< 3.70", "< 3.30"]

----------
Test system: SW480
Protocol Description: Anticancer activity against human SW480 cells assessed as inhibition of cell proliferation by MTT assay
Assay type: functional, cell-based
Reported Property: pIC50
Numbers only, as −log10 of the molar value.

| Smiles Text | Reported Property | Reported Measurement |
| --- | --- | --- |
| COc1cc(COC(=O)CC[C@@H](C)[C@H]2CC[C@H]3[C@@H]4[C@H](O)C[C@@H]5C[C@H](O)CC[C@]5(C)[C@H]4C[C@H](O)[C@]23C)cc(OC)c1 | pIC50 | 4.55 |

Please state pIC50 for every compound in the list that follows.
1. C[C@H](CCC(=O)OCc1cccc(O)c1)[C@H]1CC[C@H]2[C@@H]3[C@H](O)C[C@@H]4C[C@H](O)CC[C@]4(C)[C@H]3C[C@H](O)[C@]12C
2. COc1cc(COC(=O)CC[C@@H](C)[C@H]2CC[C@H]3[C@@H]4[C@H](O)C[C@@H]5C[C@H](O)CC[C@]5(C)[C@H]4CC[C@]23C)cc(OC)c1

A.
1. 4.41
2. 4.42
